Source listed as the nanobody polyreactivity screen of Harvey et al. (2022).

experimentDescription: yeast display, Sf9 membrane polyspecificity reagent, FACS + sequencing; frameworks hold sequencing errors
quantity: polyreactivity (PSR sort gate)

INSERT INTO assay_data (residues, quantity, observedvalue) VALUES
  ('QVQLVESGGGLVQAGGSLRLSCAASGSIFTDNAMGWYRQAPGKERELVAAITSNGGSTYYADSVKGRFTISRDNAKNTVYLQMNSLKPEDTAVYYCAADSLYREDDYWGQGTQVTVSS', 'polyreactivity (PSR sort gate)', 'low polyreactivity'),
  ('QVQLVESGGGLVQAGGSLRLSCAASGRIFYYAMGWYRPAPGKERELVAAISRSGGSTYYADSVKGRFTISRDNAKNTVYLQMNSLKPEDTAVYYCAAVIYIYPISKRDYWGQGTQVTVSS', 'polyreactivity (PSR sort gate)', 'low polyreactivity');
